test system: HBV; assay: Anti-HBV activity, HepG2.117 inducibly HBV producing cell line (Tet-off), intracellular HBV DNA by realtime PCR; format: cell-based, Hepatitis B virus (HBV); conditions: Hepatitis B virus, HepG2.117, 72 h, HepG2.117 cells, 3 days of treatment
Define the label as criterion met when EC50 is strictly less than 400 nM and as criterion not met in all remaining cases.

## Input In the record for Cc1cc(NC(=O)C2CN(S(=O)(=O)CC(C)C)c3ccccc32)ccc1F (stereo not shown) , is EC50 less than 400 nM?
## Output criterion not met

## Input EC50 strictly < 400 nM for this molecule? Cc1cc(NC(=O)[C@@H]2CCN(S(=O)(=O)CC(C)C)C2)ccc1F
## Output criterion not met

## Input Strictly below 400 nM in EC50? Cc1cc(NC(=O)[C@H]2CCN(S(=O)(=O)N[C@H](C)CO)C2)ccc1F
## Output criterion met

## Input Dear reviewer, please state whether O=C(Nc1ccc(F)c(F)c1)[C@H]1CCN(S(=O)(=O)N[C@H]2CCOC2)C1 has EC50 strictly beneath 400 nM.
## Output criterion met

## Input Say whether its EC50 is strictly beneath 400 nM. Entry: COC(=O)NC[C@@H](C)NS(=O)(=O)N1CC[C@H](C(=O)Nc2ccc(F)c(C)c2)C1
## Output criterion met

## Input Record Cc1cc(NC(=O)[C@H]2CCN(S(=O)(=O)NC3(C)COC3)C2)ccc1F : is its EC50 strictly below 400 nM?
## Output criterion met

## Input # TODO verify EC50 < 400 nM strictly for this molecule: CCCS(=O)(=O)N1CC[C@H](C(=O)Nc2ccc(F)c(C)c2)C1
## Output criterion not met

## Input Check if EC50 falls below 400 nM for Cc1cc(NC(=O)C23CC2CN(S(=O)(=O)N[C@H]2CCOC2)C3)ccc1F (stereo partly shown) .
## Output criterion not met

## Input Here's an entry: Cc1cc(NC(=O)[C@H]2CCN(S(=O)(=O)NC3CCN(C)C3=O)C2)ccc1F (stereo partly shown) . Is its EC50 below 400 nM?
## Output criterion not met

## Input Does Cc1cc(NC(=O)[C@H]2C[C@@H]3CC[C@H]2N3S(=O)(=O)CC(C)C)ccc1F (racemic) have EC50 strictly under 400 nM?
## Output criterion not met

## Input Lab log: compare recorded EC50 with 400 nM; is it strictly lower for Cc1cc(NC(=O)[C@H]2CCN(S(=O)(=O)NC(C)CNC(=O)OC(C)(C)C)C2)ccc1F (stereo partly shown) ?
## Output criterion not met

## Input Confirm or reject: EC50 of Cc1cc(NC(=O)C2CCN(S(=O)(=O)CC(C)C)C2)ccc1F (stereo not shown) lies strictly below 400 nM
## Output criterion not met

## Input In plain terms, does CCC(C)S(=O)(=O)N1CC[C@H](C(=O)Nc2ccc(F)c(C)c2)C1 (stereo partly shown) come in under 400 nM for EC50?
## Output criterion not met

## Input State whether 400 nM exceeds EC50 recorded for Cc1cc(NC(=O)[C@H]2CCN(S(=O)(=O)NC3(CCO)COC3)C2)ccc1F .
## Output criterion met

## Input Say whether its EC50 is strictly beneath 400 nM. Entry: Cc1cc(NC(=O)[C@@H]2CN(S(=O)(=O)NC(C)C)C[C@H]2C)ccc1F (relative stereo)
## Output criterion not met

## Input Here's an entry: Cc1cc(NC(=O)[C@H]2CCN(S(=O)(=O)NC(C)CC#N)C2)ccc1F (stereo partly shown) . Is its EC50 below 400 nM?
## Output criterion met

## Input Does Cc1cc(NC(=O)[C@H]2CCN(S(=O)(=O)N[C@H]3CCOC3)C2)ccc1F have EC50 strictly under 400 nM?
## Output criterion met

## Input A record lists Cc1cc(NC(=O)[C@H]2CCN(S(=O)(=O)NC(C)C)C2)ccc1F . Is its EC50 below 400 nM?
## Output criterion met

meta.source: patent US9895349B2
